species: Rattus norvegicus; assay: DrugMatrix - Regimen: Daily Repeat; assay type: toxicity, organism-based, Sprague-Dawley; parameters: regimen Daily Repeat, gender Male, age 6-8 weeks; settings: in vivo, po, 0 mg/kg, 120 h, tissue Plasma, route oral GAVAGE, dose level Control, time 5 day, vehicle 100 % WATER
Measured quantity: ALBUMIN (G/DL)
API: value field is a number in G/DL; no unit string.

Nc1ccc(S(=O)(=O)Nc2nccs2)cc1 = 4.07
CC[C@H]1OC(=O)[C@H](C)[C@@H](O[C@H]2C[C@@](C)(OC)[C@@H](O)[C@H](C)O2)[C@H](C)[C@@H](O[C@@H]2O[C@H](C)C[C@H](N(C)C)[C@H]2O)[C@](C)(O)C[C@@H](C)CN(C)[C@H](C)[C@@H](O)[C@]1(C)O = 4.12

Quick one: ALBUMIN for "OCCO" ?
4.07

* * *

species: Rattus norvegicus; test: DrugMatrix - Regimen: Daily Repeat; type: toxicity, organism-based, Sprague-Dawley; design: regimen Daily Repeat, gender Male, age 6-8 weeks; settings: in vivo, po, 0 mg/kg, 72 h, tissue Blood, route oral GAVAGE, dose level Control, time 3 day, vehicle .5 % CMC
Measured quantity: ERYTHROCYTE COUNT
Report as: number unit

Clc1cc2c(cc1Cl)Oc1cc(Cl)c(Cl)cc1O2 = 6.68 x10E6/uL
C=C(CC)C(=O)c1ccc(OCC(=O)O)c(Cl)c1Cl = 6.19 x10E6/uL
C[C@]12C/C(=C/O)C(=O)C[C@@H]1CC[C@@H]1[C@@H]2CC[C@@]2(C)[C@H]1CC[C@]2(C)O = 7.15 x10E6/uL

// returns reported ERYTHROCYTE COUNT for input "Nc1cccc(Cl)c1"
6.33 x10E6/uL

* * *

PLATELET COUNT values for the compounds below.
species: Rattus norvegicus; assay: DrugMatrix - Regimen: Daily Repeat; type: toxicity, organism-based, Sprague-Dawley; design: regimen Daily Repeat, gender Male, age 6-8 weeks; conditions: in vivo, po, 0 mg/kg, 120 h, tissue Blood, route oral GAVAGE, dose level Control, time 5 day, vehicle .5 % CMC
Hi! Could you send only the number? It should be in x10E3/uL, unit omitted.

Worked cases, answers included:
CC[C@]1(O)CC[C@H]2[C@@H]3CCC4=CCCC[C@@H]4[C@H]3CC[C@@]21C = 1062.2
C[C@@H](O)[C@H]1C(=O)N2C(C(=O)O)=C(S[C@@H]3CN[C@H](C(=O)N(C)C)C3)[C@H](C)[C@H]12 [MEROPENEM] = 1255.5
COc1ccc(/C=C/C(=O)Nc2ccccc2C(=O)O)cc1OC = 1255.5
CN1C(=O)CN=C(c2ccccc2)c2cc(Cl)ccc21 [DIAZEPAM] = 1274
Cc1cnc(C(=O)NCCc2ccc(S(=O)(=O)NC(=O)NC3CCCCC3)cc2)cn1 [GLIPIZIDE] = 1097.5

// next item, PLATELET COUNT requested
What does the data say about its PLATELET COUNT? Entry: Nc1cccc(Cl)c1 [3-CHLOROANILINE]
1182.33

* * *

species: Rattus norvegicus; experiment: DrugMatrix - Regimen: Daily Repeat; type: toxicity, organism-based, Sprague-Dawley; parameters: regimen Daily Repeat, gender Male, age 6-8 weeks; settings: in vivo, po, 0 mg/kg, 120 h, tissue Plasma, route oral GAVAGE, dose level Control, time 5 day, […]
Measured quantity: TOTAL BILIRUBIN (mg/dL)
// note: answer is a bare numeric in mg/dL

// solved cases for TOTAL BILIRUBIN follow
CC(=O)Nc1nnc(S(N)(=O)=O)s1 [ACETAZOLAMIDE] = 0.2
CC(CCc1ccc(O)cc1)NCCc1ccc(O)c(O)c1 (stereo not drawn) = 0.37

Proceeding to the next molecule to report its TOTAL BILIRUBIN.
Endpoint output: TOTAL BILIRUBIN of "COc1ncnc(NS(=O)(=O)c2ccc(N)cc2)c1OC" . Value?
0.2
